Reference source: patent US20210380699A1

target: Human PD-L1 expressed on cells (human, UniProt Q9NZQ7 19-290); assay: cell-based or functional assay
Sequence (Q9NZQ7 19-290 limits assumed): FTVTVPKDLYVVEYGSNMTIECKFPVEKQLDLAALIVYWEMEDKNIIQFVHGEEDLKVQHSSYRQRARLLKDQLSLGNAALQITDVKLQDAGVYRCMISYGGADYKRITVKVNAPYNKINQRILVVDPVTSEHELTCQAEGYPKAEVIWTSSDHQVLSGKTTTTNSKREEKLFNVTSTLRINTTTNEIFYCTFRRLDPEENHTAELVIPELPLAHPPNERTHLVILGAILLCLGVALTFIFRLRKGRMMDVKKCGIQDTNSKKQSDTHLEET
Item-by-item account of EC50, IL-2 induction, murine T cell hybridoma assay, n = 2
Give your result in nM as a bare value.

BINDER	SCALE UNIT	ASSAY VALUE
416E01 (human IgG1) (antibody, V domains shown) VH: EVQLAESGGGLVQPGGSLRLSCAASGFTFSNYAMSWVRQTPGKGLEWVSAISFSGGTTYYADSVKGRFTISRDNSKNTLYLHMNSLRADDTAVYYCAKDEAPAGATFFDSWGQGTLVTVSS VL: DIQMTQSPSSVSASVGDRVTITCRASQGIRRWLAWYQQKPGKAPKLLISGASSLQSGVPSRFSGSGSGTDFTLIITSLQPEDFATYYCQQANSFPITFGQGTRLEIKR	nM	0.15

stdin: Specify EC50, IL-2 induction, murine T cell hybridoma assay, n = 2 for 414B06 (antibody, V domains shown, also called 414606) VH: EVHLVESGGGLVQPGGSLRLSCAASGFTFSSYWMNWVRQAPGKGLEWVANIKQDGSEKYYVDSVKGRFTVSRDNAKNSLYLQMNSLRAEDTAVYYCARVRQWSDYSDYWGQGTPVTVSS VL: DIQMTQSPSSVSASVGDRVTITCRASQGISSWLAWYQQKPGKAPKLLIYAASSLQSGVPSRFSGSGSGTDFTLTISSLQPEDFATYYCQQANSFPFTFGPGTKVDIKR and stop.
stdout: 0.3

stdin: Specify EC50, IL-2 induction, murine T cell hybridoma assay, n = 2 for 84G09 (human IgG1) (antibody, V domains shown, also called clone 84609; lead antibody) VH: EVQLVESGGGLVQPGRSLRLSCAASGFTFDDYAMHWVRQTPGKGLEWVSGISWKSNIIGYADSVKGRFTISRDNAKNSLYLQMNSLRAEDTALYYCARDITGSGSYGWFDPWGQGTLVTVSS VL: DIQMTQSPSSLSASVGDRVTITCRASQSISSYLNWYQQKPGKAPKPLIYVASSLQSGVPSSFSGSGSGTDFTLTISSLQPEDFATYYCQQSYSNPITFGQGTRLEIKR and stop.
stdout: 0.14

stdin: Specify EC50, IL-2 induction, murine T cell hybridoma assay, n = 2 for 413G05 (antibody, human IgG1, kappa, V domains shown) VH: QVQLVESGGGLVKPGGSLRLSCAASGFTFSDYYMSWIRQVPGKGLEWVSYISTSGSTIYYADSVKGRFTISRDNAKNSLYLQMNSLRAEDAAVYHCARGITGTNFYHYGLGVWGQGTTVTVSS VL: DIQMTQSPSSVSASVGDRVTITCRASQGINSWLAWYQQKPGKAPKLLIYAASTLQSGVPSRFSGSGSGADFTLTISSLQPEDFATYYCQQVNSFPLTFGGGTKVEIKR and stop.
stdout: 0.11
